- Measured On: Progesterone receptor (Homo sapiens) (UniProt P06401)
- Sequence (P06401 whole entry, looked up): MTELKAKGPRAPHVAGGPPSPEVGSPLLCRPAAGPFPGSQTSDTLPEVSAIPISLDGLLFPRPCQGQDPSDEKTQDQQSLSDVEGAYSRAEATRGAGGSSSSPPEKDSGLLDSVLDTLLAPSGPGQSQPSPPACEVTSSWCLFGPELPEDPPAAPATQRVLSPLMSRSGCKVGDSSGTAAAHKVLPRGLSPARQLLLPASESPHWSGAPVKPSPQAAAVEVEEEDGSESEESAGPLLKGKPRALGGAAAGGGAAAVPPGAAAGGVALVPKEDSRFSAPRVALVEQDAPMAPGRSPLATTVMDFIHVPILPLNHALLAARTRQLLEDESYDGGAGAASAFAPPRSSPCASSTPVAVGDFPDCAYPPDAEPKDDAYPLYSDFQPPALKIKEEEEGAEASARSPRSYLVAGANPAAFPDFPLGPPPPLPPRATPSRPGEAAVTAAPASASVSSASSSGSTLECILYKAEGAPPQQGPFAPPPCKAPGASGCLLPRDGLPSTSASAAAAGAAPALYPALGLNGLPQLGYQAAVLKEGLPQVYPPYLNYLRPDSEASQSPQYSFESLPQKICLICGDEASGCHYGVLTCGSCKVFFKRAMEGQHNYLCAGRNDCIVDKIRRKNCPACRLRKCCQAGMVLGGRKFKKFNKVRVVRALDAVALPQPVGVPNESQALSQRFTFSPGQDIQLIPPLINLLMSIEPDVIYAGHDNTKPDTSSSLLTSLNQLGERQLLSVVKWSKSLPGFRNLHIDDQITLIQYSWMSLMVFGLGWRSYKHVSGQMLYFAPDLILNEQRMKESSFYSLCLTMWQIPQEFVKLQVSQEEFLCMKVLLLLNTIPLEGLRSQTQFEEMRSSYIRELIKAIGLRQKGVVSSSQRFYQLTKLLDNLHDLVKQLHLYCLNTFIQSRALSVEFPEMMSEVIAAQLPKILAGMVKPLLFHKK
- Assay Procedure: qHTS assay to identify small molecule antagonists of the progesterone receptor (PR) signaling pathway (AID 1346795)
- Experimental Parameters: PR-UAS-bla HEK293T, beta-lactamase FRET ratio, 16 h; series mostly up to 92.4 µM
Inconclusive results are not listed. Active and inactive are the calls of the source. The call rests on the fitted dose curve; in most records, active means well fitted inhibition curve with a large enough effect in the signal ratio in the repeat runs (not every such curve was filed as active); inconclusive means weak or mixed curves; inactive means flat fitted curve, though single readings scatter; the % refers to the signal ratio.
Measured Property: outcome

>>> df
                              compound  test_result
0  NS(=O)(=O)c1cc2c(cc1Cl)NC=NS2(=O)=O     inactive
1         CCC(C)C=O (stereo not drawn)     inactive
2                 Clc1ccc(Cl)c(Cl)c1Cl     inactive
